Molecular target: T1, TSLPR-ECD (extracellular domain of TSLPR) (human, UniProt Q9HC73 23-231)
T1 construct: Obtained by cleavage of a TSLPR-Fc fusion protein expressed in HEK cells; also called analyte 2
T1 sequence: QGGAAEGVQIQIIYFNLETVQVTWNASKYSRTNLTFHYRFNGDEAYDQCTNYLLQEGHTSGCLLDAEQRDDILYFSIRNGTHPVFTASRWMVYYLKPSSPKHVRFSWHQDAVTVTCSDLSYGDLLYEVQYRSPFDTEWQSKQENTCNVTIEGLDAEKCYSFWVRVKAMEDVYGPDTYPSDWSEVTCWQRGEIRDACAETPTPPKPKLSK
Assay: SPR (Biacore 3000), antibody captured by anti-IgG, TSLPR-ECD as analyte, 25 °C, 1:1 Langmuir fit
QUANTITY: Kd
Returns: string containing the number followed by the unit.

Input: # query: Kd of entry TSLPR-012_75, CDR grafted (antibody, V domains shown, Humanized (CDR grafted) variant of hamster TSLPR-012; human kappa and human IgG1 or IgG4(S228P,L235E) appear only as embodiments) VH: QVQLVESGGGLVKPGGSLRLSCAASGFSITTSGYYWTWIRQFPGKGLEWMGYIGYNSKTYYNPALKSRITISRDNAKNSLYLQMNSLRAEDTAVYYCARSLYGGYKDAFDSWGQGTLVTVSS VL: EIVLTQSPDFQSVTPKEKVTITCRASQSIGTSLHWYQQKPDQSPKLLIKFASRSISGVPSRFSGSGSGTDFTLTINSLEAEDAATYYCQQSPGFPPTFGQGTKLEIKR
Output: 0.5 nM
